# Assay Remarks: NCI Yeast Anticancer Drug Screen. Data for the bub3 strain (AID 167)
# Stated Conditions: S. cerevisiae bub3 mutant strain, at 50.0 µM (retest, dose inferred, filed as 5.0)
This is part of a sample that, as a whole, favours compounds with a hit. Of some 79,000 tested, about 15% had one in any assay. The source made the active and inactive calls. No stated cut-off is given here; in the data, active means growth inhibition above about 70%; inactive means the rest.
Outcome codes: 1 (yes) (active), 0 (no) (inactive)

INSERT INTO assay_data (compound, class) VALUES
  ('Cc1cc(C(O)(C(F)(F)F)C(F)(F)F)c(I)c(C(O)(C(F)(F)F)C(F)(F)F)c1', '1 (yes)'),
  ('CC(C)/C(Cl)=N\OC(=O)Nc1cccc(F)c1', '1 (yes)'),
  ('O=C(Nc1ccc(Br)cc1)c1cc(Br)c(O)c(Br)c1O', '1 (yes)'),
  ('CN(C)CCCC(=O)OCC[N+](C)(C)C', '0 (no)'),
  ('COc1ccc(CN2CCCN(Cc3ccc(OC)cc3)C2Cc2cc(Cl)ccc2OC)cc1', '0 (no)'),
  ('O=C(CNS(=O)(=O)Cc1ccccc1)NCC(=O)NNc1ccccc1', '0 (no)'),
  ('COc1cc(Cc2n[nH]c(=S)n2-c2ccccc2)c(S(N)(=O)=O)cc1OC', '0 (no)'),
  ('C=CCOCC(C)OC(=O)C(C)C (stereo unspecified)', '0 (no)'),
  ('O=C(Nc1cccc(Cl)c1)Oc1c(Br)cc(Br)cc1Br', '1 (yes)'),
  ('Cc1cc(N(CCCCl)CCCCl)ccc1C=Nc1cccc(Cl)c1', '0 (no)'),
  ('C=Cc1ccccc1C1(O)C=CC(OC)(OC)C=C1', '0 (no)');

Cited source for all entries: PubChem BioAssay (NCI)
